System: TxB2 synthesis
measurement_description: TxB2 synthesis inhibition in vitro in whole blood of normal rats
Format: cell-based, normal Sprague Dawley rats
test_conditions: Rattus norvegicus, 1 h, read-out: In vitro effect on TxB2 synthesis in normal rats, IC50 (whole blood)
measured_quantity: pIC50
Keep it numeric: pIC50 is minus log10 of the concentration in mol/L.

Per the record, `CC(=O)Oc1ccccc1C(=O)O` has pIC50 of 4.51

---

assayed_system: TXA2 receptor (Homo sapiens, UniProt P21731)
Construct: endogenous in cells; host or cells: washed human platelets from blood of healthy volunteers
Sequence (P21731 whole entry): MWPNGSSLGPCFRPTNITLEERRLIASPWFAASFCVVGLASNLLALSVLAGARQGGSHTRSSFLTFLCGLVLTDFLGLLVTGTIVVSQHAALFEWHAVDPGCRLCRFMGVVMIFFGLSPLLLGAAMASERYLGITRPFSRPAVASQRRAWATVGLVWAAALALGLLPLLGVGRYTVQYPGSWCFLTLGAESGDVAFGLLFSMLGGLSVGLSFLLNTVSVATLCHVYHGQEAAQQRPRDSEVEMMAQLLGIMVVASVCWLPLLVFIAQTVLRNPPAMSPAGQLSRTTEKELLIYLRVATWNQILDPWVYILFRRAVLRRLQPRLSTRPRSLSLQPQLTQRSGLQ
measurement_description: Displacement of [^3 H]-SQ 29.548 binding to washed human platelets (TxA2 antagonism)
test_conditions: washed human platelets; [^3 H]-SQ 29,548 5 nM; 30 min at 25° C.; read-out: ^3 H SQ 29548 binding displacement (washed human platelet) IC50
Here, each record is paired with measured pIC50 data.
FYI, pIC50 means -log10 of a concentration in mol per litre.

INSERT INTO results (compound, assay_value) VALUES
  ('O=C(O)CC1CCCc2c1n(Cc1ccc(-n3ccnc3)cc1)c1ccc(F)cc21 (centres unmarked)', 8.18);

Okay, next one:
GET /values?item= O=C(O)CC1CCCc2c(n(Cc3ccc(-n4ccnc4)cc3)c3ccc(F)cc23)C1 (centres unmarked) &system= TXA2 receptor (Homo sapiens, UniProt P21731) returns pIC50: 8.22
